FYI, the data here is from patent US20240010721A1.

Could you please report measured pKd for the items listed next?
# system_tested: ROR1 (antigen of the KD determination and of the Octet dissociation measurement) (UniProt Q01973 30-403, limits assumed)
# Sequence (Q01973 30-403 limits assumed): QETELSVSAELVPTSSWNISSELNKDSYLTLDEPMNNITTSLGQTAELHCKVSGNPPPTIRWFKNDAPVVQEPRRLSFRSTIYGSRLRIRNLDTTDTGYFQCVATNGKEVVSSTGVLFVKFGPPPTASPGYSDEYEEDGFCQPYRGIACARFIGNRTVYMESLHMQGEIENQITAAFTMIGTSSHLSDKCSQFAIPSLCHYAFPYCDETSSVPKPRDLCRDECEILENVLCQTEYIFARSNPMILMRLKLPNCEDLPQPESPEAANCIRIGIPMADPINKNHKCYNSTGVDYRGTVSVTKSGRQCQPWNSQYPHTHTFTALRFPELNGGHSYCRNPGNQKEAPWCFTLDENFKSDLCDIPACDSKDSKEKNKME
# test_method_notes: method not stated (conventional procedures)
One number for each entry, as −log10 of the molar value.

PR001356 (antibody, human IgG1, kappa, V domains shown, fully human IgG1, kappa; also called anti-ROR1 1015M2-E6 hIgG1; PR001356(WT)) VH: QVQLVESGGGVVQPGRSLRLSCAASGFTFSSYGMHWVRQAPGKGLEWVAVAWYDGVSEDYADSVKGRFTISRDNAKNTLYLQMNSLRAEDTAVYYCAREQARSFDLWGRGTLVTVSS VL: DIVMTQSPSTLSASVGDRVTITCRASQSINNWLAWYQQKPGKAPKLLIYKASSLESGVPSRFSGSGSGTEFTLTISSLQPDDFATYYCQQYKSYSPMYTFGQGTKVEIKR : 9.09
PR001366 (antibody, V domains shown, fully human IgG1, kappa) VH: QVQLVESGGGVVQPGRSLRLSCTASGFTFSSYGMHWVRQAPGKGLEWVAVKWYDGISQNFADSVKGRFTISRDNSKNTLYLQMNSLRAEDTAVYYCARDLARSFDIWGRGTLVTVSS VL: DIQLTQSPSTLSASVGDRVTITCRASQSINSWLAWYQQKPGKAPKLLIYKASSLESGVPSRFSGSGSGTEFTLTISSLQPDDFATYYCQQYKSYSPMYTFGQGTKVDIKR : 8.78
PR001352 (antibody, human IgG1, kappa, V domains shown, fully human IgG1, kappa) VH: EVQLLESGGGVVQPGRSLRLSCAASGFTFSSYGMHWVRQAPGKGLEWVAVKWYDGISQNFADSVKGRFTISRDNSKNTLYLQMNSLRAEDTAVYYCARDLARSFDLWGRGTLVTVSS VL: DIQLTQSPSSLSASVGDRVTITCRASQTINNWLAWYQQKPGKAPKLLIYKASSLESGVPSRFSGSGSGTEFTLTISSLQPDDFATYYCQQYNSYSPMYTFGQGTKVEIKR : 8.82
PR001362 (antibody, V domains shown, fully human IgG1, kappa) VH: QVQLVESGGGLVQPGGSLRLSCAASGFTFSTYGMHWVRQAPGKGLEWVAVIWYDGSDEDYADSVKGRFTISRDNSKNTLYLQMNSLRAEDTAVYYCARDQARSFDLWGRGTLVTVSS VL: DIVMTQSPSTLSASVGDRVTITCRASQSINSWLAWYQQKPGKAPKLLIYKASSLESGVPSRFSGSGSGTEFTLTISSLQPDDFATYYCQQYKSYSPMYTFGQGTKVEIKR : 7.34

# input for lookup
Request: # return recorded pKd for input PR001359 (antibody, human IgG1, kappa, V domains shown, fully human IgG1, kappa) VH: QVQLVESGGGVVQPGRSLRLSCAASGFTFSTYGMHWVRQAPGKGLEWVAVTWYDGSDKDYADSVKGRFTISRDTSKNTLYLQMNSLRAEDTAVYYCAREQARSFDLWGRGTLVTVSS VL: DIVMTQSPSTLSASVGDRVTITCRASQSVNNWLAWYQQKPGKAPKLLIYKASSLESGVPSRFSGSGSGTEFTLTISSLQPDDFATYYCQQYKSYSPMYTFGQGTKVEIKR
Response: 8.70
